Sequence of the target: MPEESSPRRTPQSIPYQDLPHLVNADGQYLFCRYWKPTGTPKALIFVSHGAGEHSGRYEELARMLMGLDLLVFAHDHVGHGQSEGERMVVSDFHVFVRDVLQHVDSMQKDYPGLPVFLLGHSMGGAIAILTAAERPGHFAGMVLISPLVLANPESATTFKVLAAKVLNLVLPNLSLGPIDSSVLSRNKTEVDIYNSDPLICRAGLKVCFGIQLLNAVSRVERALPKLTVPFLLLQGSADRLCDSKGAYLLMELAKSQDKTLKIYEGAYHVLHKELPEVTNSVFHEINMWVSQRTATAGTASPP
pIC50: −log10 of the molar value.
Measure name: pIC50

Molecule: O=C(N1CC(c2ccc(C3(C(F)(F)F)CC3)cc2)C1)N1CC2(CC(c3nnc([C@H](O)C(F)(F)F)[nH]3)C2)C1 (single isomer, unassigned)
Readout value: 8.41

A: CCn1nc(C(F)(F)F)cc1CN1CC2(C1)CN(C(=O)N1CC3(CC(c4nc(C5CC5)n[nH]4)C3)C1)C2
B: O=C(N1CC(C23CC(Oc4cnc(C(F)(F)F)cn4)(C2)C3)C1)N1CC2(CC(c3nc(C4CC4)n[nH]3)C2)C1
I'm curious, which of these has a smaller pIC50 number: A or B ? // caller expects the label of the chosen entry
A
(A: 8.34, B: 8.61)

###

- Subject of test: MAGL protein (Homo sapiens)
- Assay procedure: 2-AG assay: MAGL inhibitory activity by hydrolysis of 2-arachidonoylglycerol to arachidonic acid, followed by mass spectrometry
- Format: biochemical
- Experimental conditions: 8 μM 2-arachidonoylglycerol, 15 min preincubation, 30 min reaction at RT, RapidFire MS readout
Measure name: IC50 (nM)

Worked cases, answers included:
Compound: O=C(N1CC(OCc2ccc(C(F)(F)F)nc2)C1)N1CC2(CC(c3nnc(C4CC4)[nH]3)C2)C1 [compound 332]
IC50 [nM]: 159

Compound: O=C(N1CC(c2ccc(NC3CCS(=O)(=O)C3)nc2)C1)N1CC2(CC(c3nnc(C4CC4)[nH]3)C2)C1 (stereo not shown) [compound 81]
IC50 [nM]: 28.2

Compound: O=C(N1CC2(CC(c3nc(C4(O)CC4)n[nH]3)C2)C1)N1CC2(CCN(Cc3cccc(S(=O)(=O)C(F)(F)F)c3)C2)C1 [compound 482]
IC50 [nM]: 3.39

Compound: O=C(N1CC2(CC(Cc3cnc(C(F)(F)F)nc3)C2)C1)N1CC2(CC(c3nnc(C4CC4)[nH]3)C2)C1 [compound 20]
IC50 [nM]: 0.74

Compound: O=C(N1CC2(CC(Cc3cc(C(F)F)[nH]n3)C2)C1)N1CC2(CC(c3nc(C4CC4)n[nH]3)C2)C1 [compound 610]
IC50 [nM]: 0.4

a: O=C(N1CCC(NS(=O)(=O)c2ccc(C(F)(F)F)cc2)CC1)N1CC2(CC(c3nnc(C4CC4)[nH]3)C2)C1 [compound 248]
b: O=C(N1CC2(CC(Cc3nc(C(F)(F)F)co3)C2)C1)N1CC2(CC(c3nnc(C4(O)CC4)[nH]3)C2)C1 [compound 62]
I'm curious, which of these has a smaller IC50 number: a or b ? // caller expects the label of the chosen entry
b

###

Lab note: IC50 readings collected with MAGL protein (Homo sapiens, UniProt Q99685) for the following compounds.
Measure name: IC50 (nM)

Worked cases, answers included:
Compound: NC1(c2nnc(C3CC4(C3)CN(C(=O)N3CC5(CC(Cc6ccc(C(F)(F)F)cn6)C5)C3)C4)[nH]2)CC1
IC50 [nM]: 2.35

Compound: CS(=O)(=O)c1cccc(CC2CC3(C2)CN(C(=O)N2CC4(CC(c5nnc(C6(O)CC6)[nH]5)C4)C2)C3)c1
IC50 [nM]: 1.51

Compound: O=C(N1CC2(CC(c3nc(C4CC(F)(F)C4)n[nH]3)C2)C1)N1CC2(CN(Cc3ncc(C(F)(F)F)s3)C2)C1
IC50 [nM]: 357

1: O=C(N1CC2(CC(Oc3ccc(Cl)cn3)C2)C1)N1CC2(CC(c3nc(C4CC4)n[nH]3)C2)C1
2: O=C(N1CC(c2ccc(C3(C(F)(F)F)CC3)nc2)C1)N1CC2(CC(c3nnc(C4(O)CC4)[nH]3)C2)C1
3: O=C(N1CC(c2ccc(NC3(C(F)(F)F)CC3)nc2)C1)N1CC2(CC(c3nnc(C4CCC4)[nH]3)C2)C1
Order the 3 compounds from highest to lowest IC50. Would you mind listing the labels in the order asked for?
2, 3, 1
(2: 43.6 nM, 3: 10.7 nM, 1: 0.79 nM)
